experiment: solvent given as SMILES; settings: in OCCO
Classify as follows. Reported emission maximum greater than or equal to 500 nm: Met. Reported emission maximum below: Not met.

CCN1C(=CC=Cc2n(CC)c3cc(Cl)c(Cl)cc3[n+]2CC)N(CC)c2cc(Cl)c(Cl)cc21
Met
O=C1NC(=O)/C(=C\c2ccccc2O)S1
Not met
C[n+]1ccc(/C=C/c2ccc([O-])cc2)cc1
Met
O=c1oc2ccccc2cc1-c1nc2ccccc2o1
Not met

###

experiment: solvent given as SMILES; conditions: in CC(C)O
reported-property: emission maximum (nm)

N#Cc1cccc2cc[nH]c12
380
COc1cc(/C=C/c2ccccc2)cc(OC)c1
382
CN(C)c1ccc(C#Cc2ccccc2)cc1
365
O=c1oc2ccccc2cc1-c1nc2ccccc2o1
444
COc1ccc(C#Cc2nc3ccccc3nc2-c2cn(C)c3ccccc23)cc1
519
COc1cc(-c2cc(-c3ccc(C)cc3)nc3c(C#N)c(N4CCCC4)nc(N)c23)cc(OC)c1OC
513
